Data provenance is patent US11584714B2.

- STUDY SYSTEM: human α-thrombin (Homo sapiens (Human), UniProt P00734)
- EXPERIMENT: Enzymatic assay for thrombin (Boc-VPR-AMC substrate)
- Type: biochemical
- EXPERIMENTAL CONTEXT: read-out: Thrombin Ki
Counter-ions that a name gives are not always drawn.
MEASURED PROPERTY: Ki

As a guide, the following entries are already answered.
CN[C@H](CCc1ccccc1)C(=O)N[C@@H](C)C(=O)NCc1ccc(C(=N)N)cc1 = < 0.5 µM
N=C(N)c1ccc(CNC(=O)[C@@H]2CCCCN2C(=O)[C@H](N)C2CCCCC2)cc1 = < 0.5 µM
C[C@H](NC(=O)[C@H]1C[C@H](Cc2ccc(F)c(Cl)c2)CN1)C(=O)NCc1cnc2c(c1)c(Cl)cn2C [compound 1474, Trifluoroacetate salt] = > 25 µM
N=C(N)NCCCNC(=O)[C@@H]1CCN1C(=O)[C@H](N)C1CCCCC1 [compound 1004, Hydrochloride] = < 0.5 µM
Cc1nc(N)ccc1CNC(=O)[C@H](C)NC(=O)[C@H]1C[C@@H](c2ccccc2)CCN1C = > 25 µM
N=C(N)c1ccc(CNC(=O)[C@@H]2CCN2C(=O)[C@H](N)C2Cc3ccccc3C2)cc1 = < 0.5 µM
Cc1cc(Cl)cc(CNC(=O)[C@H](C)NC(=O)[C@H]2C[C@@H](c3ccccc3)CCN2)c1O [compound 1365, Hydrochloride] = > 25 µM
CC(C)(C)[C@@H](N)C(=O)N1CC[C@H]1C(=O)NCc1ccc(C(=N)N)cc1 = < 0.5 µM
C[C@H](NC(=O)[C@H](CCc1ccccc1)NCc1c[nH]c2ccccc12)C(=O)NCc1ccc(C(=N)N)cc1 = < 0.5 µM
COc1cc(C(=N)N)ccc1CNC(=O)[C@H](C)NC(=O)[C@H](N)CCc1ccccc1 = < 0.5 µM

Look at each compound and report its Ki.
1. C[C@H](NC(=O)[C@H]1C[C@@H](c2ccccc2)CCN1)C(=O)NCc1ccccc1
2. CC(C)COC(=O)NC(=N)c1ccc(CNC(=O)[C@H](C)NC(=O)[C@H]2C[C@H](c3ccccc3)CN2)cc1

## Result
1: > 25 µM; 2: > 25 µM

Look at each compound and report its Ki.
1. N=C(N)c1ccc(CNC(=O)[C@@H]2CCN2C(=O)[C@@H](CCCc2ccccc2)NCC(=O)O)cc1
2. N=C(N)c1ccc(CNC(=O)[C@@H]2CCN2C(=O)[C@H](NCC(=O)O)C2CCCCC2)cc1O
3. Cc1cc(Cl)cc(CNC(=O)[C@H](C)NC(=O)[C@H]2C[C@H](Cc3ccc4ccccc4c3)CN2)c1O
4. C[C@H](NC(=O)[C@H]1C[C@H](Cc2ccc3ccccc3c2)CN1)C(=O)NCc1cc(Cl)ccc1-n1cnnn1 [compound 1385, Trifluoroacetate salt]
5. N=C(N)c1ccc(CNC(=O)[C@@H]2CCN2C(=O)[C@H](N)C2CCCC2)cc1
6. C[C@H](NC(=O)[C@H]1C[C@H](c2ccccc2)CN1)C(=O)NCc1cc(O)cc(Cl)c1 [compound 1364, Hydrochloride]
7. COc1cc(CNC(=O)[C@H](C)NC(=O)[C@H](N)CCc2ccccc2)cnc1N
8. Cc1nc(N)ccc1CNC(=O)[C@H](C)NC(=O)[C@H]1C[C@H](Cc2ccc(-c3ccc(F)cc3C#N)cc2)CN1

## Result
["< 0.5 µM", "< 0.5 µM", "> 25 µM", "< 0.5 µM", "< 0.5 µM", "> 25 µM", "> 25 µM", "> 25 µM"]

Look at each compound and report its Ki.
1. Cc1nc(N)ccc1CNC(=O)[C@@H]1CCN1C(=O)[C@H]1C[C@H](Cc2ccc(Br)cc2)CN1 [compound 1438, Di-trifluoroacetate salt]
2. C[C@H](NC(=O)[C@H]1C[C@H](c2ccccc2)CN1)C(=O)NCc1cnc2[nH]nc(Cl)c2c1 [compound 1384, Dihydrochloride]
3. CCc1nc(N)ccc1CNC(=O)[C@H](C)NC(=O)[C@H]1C[C@H](c2ccccc2)CN1 [compound 1323, Dihydrochloride]
4. C[C@H](NC(=O)[C@H]1C[C@H](c2ccccc2)CN1)C(=O)NCc1cnc2[nH]ccc2c1 [compound 1311, Dihydrochloride]
5. C[C@H](NC(=O)[C@H]1C[C@H](Cc2ccccc2-c2ccccc2)CN1)C(=O)NCc1cnc2[nH]cc(Cl)c2c1 [compound 1393, Di-trifluoroacetate salt]

## Result
1: < 0.5 µM; 2: > 25 µM; 3: > 25 µM; 4: > 25 µM; 5: < 0.5 µM

Look at each compound and report its Ki.
1. Nc1nccc2cc(CNC(=O)[C@@H]3CCN3C(=O)[C@H](N)C3CCCCC3)ccc12 [compound 1041, dihydrochloride]
2. C[C@H](NC(=O)[C@@H](CCc1ccccc1)NCc1ccc[nH]1)C(=O)NCc1ccc(C(=N)N)cc1

## Result
1. < 0.5 µM
2. < 0.5 µM

Notebook: C[C@H](NC(=O)[C@@H](CCc1ccccc1)NCc1ccc(OCCO)cc1)C(=O)NCc1ccc(C(=N)N)cc1 , Ki read as < 0.5 µM
